Origin of the recorded values: patent US20150038707A1

Isla mujeres (% dead (SE)) for assorted compounds
Tested on: Ae. aegypti Isla mujeres strain (metabolically pyrethroid resistant)
assay details: Toxicity assay on treated netting (Example 7), Isla mujeres strain
Format: in vivo
condition context: Dose 0.25 nm/cm^2; Time 24 hours
Write the number in % without appending the unit.

Worked examples follow.
{"compound": "CC1(C)C(C=C(Cl)Cl)C1C(=O)OC(C#N)c1cccc(Oc2ccccc2)c1 (stereo not drawn) [Alpha-cypermethrin, alpha cypermethrin, reference compound]", "tested on": "Ae. aegypti Isla mujeres strain (metabolically pyrethroid resistant)", "Isla mujeres (% dead (SE)), %": 41.06}
{"compound": "CC1(C)C(C=C(Cl)C(F)(F)F)C1C(=O)OCc1ccc(F)c(C(F)(F)F)c1F (stereo not shown) [Compound 1405]", "tested on": "Ae. aegypti Isla mujeres strain (metabolically pyrethroid resistant)", "Isla mujeres (% dead (SE)), %": 100}
{"compound": "CC1(C)C(C=C(Cl)Cl)C1C(=O)OCc1ccc(F)c(C(F)(F)F)c1F (stereo not shown) [Compound 1406]", "tested on": "Ae. aegypti Isla mujeres strain (metabolically pyrethroid resistant)", "Isla mujeres (% dead (SE)), %": 100}
{"compound": "CC1(C)[C@H](C=C(Cl)Cl)[C@H]1C(=O)OCc1c(F)c(F)cc(F)c1F [Transfluthrin, transfluthrin, reference compound]", "tested on": "Ae. aegypti Isla mujeres strain (metabolically pyrethroid resistant)", "Isla mujeres (% dead (SE)), %": 100}
{"compound": "CC1(C)C(C=C(Cl)Cl)C1C(=O)OCc1cccc(Oc2ccccc2)c1 (stereo not shown) [Permethrin, permethrin, reference compound]", "tested on": "Ae. aegypti Isla mujeres strain (metabolically pyrethroid resistant)", "Isla mujeres (% dead (SE)), %": 14.68}

Ask: Consider the compound shown here: CC1(C)C(C=C(F)F)C1C(=O)OCc1ccc(F)c(C(F)(F)F)c1F (stereo not shown) [Compound 1403] What is its recorded Isla mujeres (% dead (SE))?
Result: 100

Ask: Consider the compound shown here: C/C=C/C1C(C(=O)OCc2c(F)c(F)c(COC)c(F)c2F)C1(C)C (stereo in doubt) [Metafluthrin, metafluthrin, reference compound] What is its recorded Isla mujeres (% dead (SE))?
Result: 77.27
